- Tested on: Bacillus subtilis DB104 (SP-AmyQ fusion secretion)
- measurement_description: AmyQ secretion efficiency, weighted average sort bin (1 = best secretion, 10 = worst) (bin number (weighted average, 1-10)); higher = lower secretion efficiency
List of AmyQ secretion efficiency values.
quantity_kind: AmyQ secretion efficiency

1. MKKAAAVLLSLGLVFGFSYGAGHVVPTAAEAKTK :: 4.57
2. MRSKKLWISLLFALTLIFTMAFSNMSPQAAGK :: 4.28
3. MLKKIALTLCPAIVGSLLFFTAPSSAHVS :: 3.86
4. MKSKGSIMACLILFSFTITGDPNTETISAFSN :: 4.93
5. MPYLKRVLLLLVTGLFMSLFAVTATWSAQTG :: 6.1
6. MKWMCSICCAAVLLAGGAKQAEAV :: 2.68
